# TESTED TARGET: SARS-CoV-2 RBD (SARS-CoV-2, UniProt P0DTC2)
# ASSAY PROTOCOL: ELISA
Reported EC50 values follow for various binders

>  <BINDER>
C038 (antibody, V domains shown) VH: VQLVESGGGVVQPGRSLRLSCAASGFTFNRIAMYWVRQAPGKGLEWVAVISFDGSYEYYAESVKGRFAISRDNSKNTLYLQMNSLRAEDTAVYYCAKSPMGYCTNGVCYPDSWGQGTLVTVSS VL: NFMLTQPHSVSESPGKTVTISCTGSSGSIASNYVQWYQQRPGSAPTTVIYEDTQRPSGVPDRFSGSIDSSSNSASLTISGLKTEDEADYYCQSYDINSRWVFGGGTKLTVL

>  <UNITS LABEL>
ng/mL

>  <EC50>
4.69

$$$$
>  <BINDER>
C152 (antibody, V domains shown) VH: QVQLVQSGAEVKKPGASVKVSCKASGYTFTSYGISWVRQAPGQGLEWMGWISAYNGNTNYAQKLQGRVTMTTDTSTSTAYMELRSLRSDDTAVFYCARDRGGHDFWSGYGFYYYYGMDVWGQGTTVTVSS VL: DIQMTQSPSSLSASVGDRVTITCRASQGISNYLAWYQQRPGKVPKLLIFAASTLQSGVPSRFSGSGSGTDFTLTISSLQPEDVATYYCQKYNSAPRTFGQGTKVEIK

>  <UNITS LABEL>
ng/mL

>  <EC50>
1.88

$$$$
>  <BINDER>
C210 (antibody, V domains shown) VH: EVQLVESGGGLIQPGGSLRLSCAASGFTVSSNYMSWVRQAPGKGLEWVSVIYSGGSTFYADSVKGRFTFSRDNSKNTLYLQMNSLRAEDTAVYYCARDLMAYGMDVWGQGTTVTVSS VL: DIQLTQSPSFLSASVGDRVTITCRASQGISSYLAWYQQKPGKAPKLLIYAASTLQSGVPSRFSGSGSGTEFTLTISSLQPEDFATYYCQQLNSYPQGTFGGGTKVEIK

>  <UNITS LABEL>
ng/mL

>  <EC50>
2.83

$$$$
>  <BINDER>
C032 (antibody, V domains shown) VH: EVQLVQSGAEVKKPGESLKISCKGSGYSFTSYWIGWVRQMPGKGLEWMGIIYPGDSDTRYSPSFQGQVTISADKSISTAYLQWSSLKASDTAMYYCARGVAVDWYFDLWGRGTLVTVSS VL: QSVLTQPPSVSGAPGQRVTISCTGSSSNIGAGYDVHWYQQLPGTAPKLLIYGNSNRPSGVPDRFSGSKSGTSASLAITGLQAEDEADYYCQSYDSSLSALYVFGTGTKVTVL

>  <UNITS LABEL>
ng/mL

>  <EC50>
99.3

$$$$
>  <BINDER>
C119 (antibody, V domains shown) VH: QVQLVQSGAEVKKPGASVKVSCKASGYTFTSYYMHWVRQAPGQGLEWMGIINPSGGSTSYAQKLQGRVTMTRDTSTSTVYMELSSLRSEDTAVYYCARANHETTMDTYYYYYYMDVWGKGTTVTVSS VL: QSALTQPASVSGSPGQSITISCTGTSSDVGGYKYVSWYQRHPGKAPKLMIYDVSNRPSGVSNRFSGSKSGNTASLTISGLQAEDEADYYCSSYTSSSTSVVFGGGTQLTVL

>  <UNITS LABEL>
ng/mL

>  <EC50>
3.57

$$$$
